assay: Phase 1b MAD study (Part 1), 28-day dosing, PK; format: in vivo, human; details: male, human, in vivo, oral; 15 mg once daily, Day 28; mean;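 note: PK profiles sampled across 24 h on Day 1 and Day 28 while participants stayed overnight in the clinical research unit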
Endpoint label: AUC(0-inf) (µg·h/mL)
Enter your answer as a number in µg·h/mL; do not include the unit.

Problem: Need AUC(0-inf) of Cc1ccc(C2=CC(C)(C)Oc3ccc(-c4ccc(-c5ccc(C(=O)O)cc5)[nH]4)cc32)cc1 , thanks.
Solution: 27.5

* * *

experiment: Rat GLP single dose study, PK at the NOAEL; details: male, in vivo, 1000 mg/kg, single dose 1,000 mg/kg (NOAEL), Day 1, mean, read-out: AUC0-24
Endpoint label: AUC(0-t)
Answer with the figure and its unit, nothing else.

Problem: Need AUC(0-t) of Cc1ccc(C2=CC(C)(C)Oc3ccc(-c4ccc(-c5ccc(C(=O)O)cc5)[nH]4)cc32)cc1 , thanks.
Solution: 560 µg·h/mL
